Assay: binders from COS7 lysate, DM2A8 probe, primary screen, torsin A project, cell lysate, small-molecule microarray, fluorescence 635/667 (AID 1065)
Settings: higher = more signal, COS7 lysate expressing mutant human TOR1A
Let's look at some molecules and their measured composite z-score.

molecule: COc1ccc([Si](C)(C)[C@@H]2[C@@H](CC(=O)N3CCC[C@H]3CO)O[C@]3(C(=O)N(Cc4cccc(N5CCCCC5=O)c4)c4ccccc43)[C@H]2C)cc1
composite z-score: 0.887
//
molecule: O=C1C[C@@](C(=O)NC2CC2)(c2ccc([N+](=O)[O-])cc2)[C@@H](c2ccc(CO)cc2)N1C1CCCCC1
composite z-score: 0.286
//
molecule: CC1CC/C=C\[C@H]2OC34C=CCN(C(C)(C)C)C(=O)[C@H]3N(CCCO)C(=O)[C@@H]4C2C(=O)O1 (stereo partly specified)
composite z-score: -0.0052
//
molecule: C=CCOC(=O)[C@H]1[C@@H]2C(=O)O[C@@H](c3ccccc3)[C@@H](c3ccccc3)N2[C@@H](c2ccc(OCCOC(=O)[C@@H]3C[C@@H]4C(=O)N[C@@H](CCCC[N+](C)(C)C)C(=O)N4[C@@H]3c3ccc(O)cc3)cc2)[C@]12C(=O)Nc1ccc(I)cc12
composite z-score: 0.857
//
molecule: COCCCN1C(=O)[C@@]2(c3ccc([N+](=O)[O-])cc3)CC(=O)N(CC34CC5CC(CC(C5)C3)C4)[C@@H]2c2ccc(CO)cc21
composite z-score: -0.104
//
molecule: C=C(CCCC)/C(=C/C[C@@H](OC(C)=O)c1ccc(CO)o1)c1cnc2ccccc2c1
composite z-score: 0.361
//
molecule: CC(C)C[C@H]1NC(=O)C([C@@H](C)OCc2ccccc2)NC(=O)[C@@]23C(=O)N[C@@H](Cc4ccccc4)C2[C@H](C)[C@@]2(C)O[C@H]2C3/C=C/C/C=C\CNC1=O (stereo partly specified)
composite z-score: 0.583
//
molecule: COc1ccc(CCNC(=O)[C@@H]2c3ccccc3C(=O)N(Cc3ccccc3OC)[C@H]2c2ccc(CO)cc2)cc1
composite z-score: 0.678
//
molecule: COCC(=C=CC[C@H](O)c1ccccc1OCCO)C[C@H](O)COCc1ccccc1
composite z-score: 0.584
//
molecule: COCCOC(=O)N1C(=O)[C@@]2(c3cc(C#CCC(C(=O)OC)C(=O)OC)ccc31)[C@H](C(=O)Nc1nc3ccccc3s1)[C@H]1C(=O)O[C@H](c3ccccc3)[C@H](c3ccccc3)N1[C@@H]2c1ccc(O)cc1
composite z-score: 0.304
//
molecule: COc1ccc(C(O)C2C=CC3C(=O)N(c4ccccc4)C(=O)C3N2Nc2ccc(C#N)cc2)cc1OCc1ccccc1 (stereo unspecified)
composite z-score: 1.55
//
molecule: CC(C)=C1C(=O)C(c2ccccc2)=C2CN3C(=O)N(CCc4ccccc4)C(=O)[C@]3(C)[C@H]21
composite z-score: -0.0272
//
molecule: CCCC#C[Si](O[C@H](CC)c1cn(Cc2ccccc2)nn1)(C(C)C)C(C)C
composite z-score: 0.0418
//
molecule: CN(C)CCCNC(=O)[C@@]1(Cc2ccccc2I)c2ccccc2C(=O)N(C2CCCCC2)[C@H]1c1ccc(CO)cc1
composite z-score: 1.02
//
molecule: O=C(NC1CC1)[C@@H]1c2ccccc2C(=O)N(Cc2ccc(OC(F)(F)F)cc2)[C@H]1c1ccc(CO)cc1
composite z-score: 0.314
//
molecule: COCCOC(=O)N1C(=O)[C@@]2(c3cc(C#CCC(C(=O)OC)C(=O)OC)ccc31)[C@H](C(N)=O)[C@H]1C(=O)O[C@H](c3ccccc3)[C@H](c3ccccc3)N1[C@@H]2c1ccc(O)cc1
composite z-score: 0.79
//
molecule: C=CC[C@@]1(C(=O)OC)N=C(c2ccc(OCCCO)cc2)O[C@@H]1c1ccccc1N=[N+]=[N-]
composite z-score: -0.0701
//
molecule: COc1ccc(C(=O)Nc2ccc(CN3C(=O)[C@@]4(O[C@@H](CCn5cc(CCO)nn5)[C@H]([Si](C)(C)c5ccc(OC)cc5)[C@H]4C)c4ccccc43)cc2)cc1
composite z-score: 0.269
//
molecule: CC(=O)OCC1C2CC[C@H]3C(OCc4ccc(F)cc4C(F)(F)F)OC[C@]4(C)[C@H]3C2=C(CN4C(=O)OC(C)(C)C)[C@H](C)C1COC(C)=O (stereo partly specified)
composite z-score: 1.4
//
molecule: COc1ccc(C(=O)Nc2cccc(CN3C(=O)[C@]4(O[C@H](CC(=O)N5Cc6ccccc6C[C@H]5CO)[C@@H]([Si](C)(C)c5ccc(OC)cc5)[C@@H]4C)c4ccccc43)c2)cc1
composite z-score: 0.822
//
molecule: O=C(NCc1ccc(F)cc1)[C@H]1C[C@H]2C(=O)N3CCC[C@H]3C(=O)N2[C@H]1c1ccc(O)cc1
composite z-score: -0.554
//
molecule: C=CCOC(=O)[C@@H]1[C@H]2C(=O)O[C@H](c3ccccc3)[C@H](c3ccccc3)N2[C@H](c2ccc(OCCOC(=O)[C@H]3C[C@H]4C(=O)N[C@@H](CCCCN(C)C)C(=O)N4[C@H]3c3ccc(O)cc3)cc2)[C@@]12C(=O)Nc1ccc(I)cc12
composite z-score: 1.43
//
molecule: CC(C)(C)OC(=O)CC[C@@]1(C(=O)NCCN2CCOCC2)N=C(c2ccc(OCCCO)cc2)O[C@@H]1c1ccccc1CN=[N+]=[N-]
composite z-score: 0.213
//
molecule: CC(C)NC(=O)[C@@H]1c2ccccc2C(=O)N(Cc2ccc(OC(F)(F)F)cc2)[C@H]1c1ccc(CO)cc1
composite z-score: -0.0722
//
molecule: C[C@@H]1ON(c2ccccc2)[C@H](c2ccccc2)[C@H]1C(=O)O
composite z-score: 0.112
//
molecule: COc1ccc([Si](C)(C)[C@@H]2[C@@H](CC(=O)N3Cc4ccccc4C[C@H]3CO)O[C@]3(C(=O)N(Cc4cccc(N5CCOC5=O)c4)c4ccccc43)[C@H]2C)cc1
composite z-score: 0.671
